Assay Target: CDK4/cyclin D3 (Homo sapiens)
Sequence (P11802 whole entry): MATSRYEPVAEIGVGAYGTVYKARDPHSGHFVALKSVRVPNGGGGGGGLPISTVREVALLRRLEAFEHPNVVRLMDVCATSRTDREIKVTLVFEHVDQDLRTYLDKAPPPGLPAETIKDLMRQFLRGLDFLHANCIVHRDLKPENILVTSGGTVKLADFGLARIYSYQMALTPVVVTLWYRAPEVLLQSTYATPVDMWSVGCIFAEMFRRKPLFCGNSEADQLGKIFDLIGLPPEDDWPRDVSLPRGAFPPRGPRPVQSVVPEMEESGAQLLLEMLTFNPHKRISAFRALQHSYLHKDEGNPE
Sequence (P30281 whole entry partner): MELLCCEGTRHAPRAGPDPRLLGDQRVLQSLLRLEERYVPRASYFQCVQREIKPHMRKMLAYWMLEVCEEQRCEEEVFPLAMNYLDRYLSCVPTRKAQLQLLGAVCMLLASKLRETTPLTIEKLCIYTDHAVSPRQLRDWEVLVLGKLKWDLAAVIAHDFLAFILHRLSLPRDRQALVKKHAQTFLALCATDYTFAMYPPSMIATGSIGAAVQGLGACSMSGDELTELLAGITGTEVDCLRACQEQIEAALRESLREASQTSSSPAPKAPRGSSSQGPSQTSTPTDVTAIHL
Experiment Notes: Human CDK4/cyclin D3 inhibitory activity (QS S Assist CDK4/Cyclin D3_FP Kit, IMAP fluorescent polarization)
Experimental Context: read-out: CDK4 Activity symbol
pIC50: −log10 of the molar value.
Readout: pIC50

| Molecule | Data Value |
| --- | --- |
| C[C@H](CO)c1cc2cnc(Nc3ccc4c(n3)CCNC4)nc2c(N2CCCCC2)n1 | 7.00 to 8.00 |

Ask: Complete the entry with pIC50 for OC(c1cc2cnc(Nc3ccc(N4CCNCC4)cn3)nc2c(N2CCOCC2)n1)C(F)(F)F (stereo not drawn)
Result: 7.00 to 8.00

Ask: Answer with the recorded pIC50 of O=C1CCNCCN1c1ccc(Nc2ncc3cc(C4COC4)nc(N4CCCCC4)c3n2)nc1 only.
Result: > 8.00

Ask: Please list pIC50 recorded for the molecule C[C@@H](O)c1cc2cnc(Nc3ccc4c(n3)CCN(C(=O)CN3CCN(CCO)CC3)C4)nc2c(N2C3CCC2CC3)n1
Result: > 8.00

Ask: Please indicate pIC50 recorded for CCN1CCN(C(=O)c2ccc(Nc3ncc4cc([C@@H](C)O)nc(N5CCCCC5)c4n3)nc2)CC1
Result: > 8.00

Ask: Identify measured pIC50 associated with C[C@@H](O)c1cc2cnc(Nc3ccc4c(n3)CCN(CC3COC3)C4)nc2c(N2CCCCC2)n1
Result: 7.00 to 8.00

Ask: Recall and state the measured pIC50 for C[C@@H](O)c1cc2cnc(Nc3ccc(N4CCNCC4=O)cn3)nc2c(N2CCC(F)(F)CC2)n1 .
Result: > 8.00

Ask: Supply recorded pIC50 for C[C@@H](O)c1cc2cnc(Nc3ccc(CN4CCN(C)C[C@@H]4C)cn3)nc2c(N2C3CCC2CC3)n1 here.
Result: > 8.00

Ask: For C[C@H](O)Cc1cc2cnc(Nc3ccc(CN4CCN(CCO)CC4)cn3)nc2c(N2CCCCC2)n1 , write its pIC50.
Result: 7.00 to 8.00

Ask: Give pIC50 for C[C@@H](O)c1cc2cnc(Nc3ccc4c(n3)CCN(C3CN(C)C3)C4)nc2c(N2CCCCC2)n1
Result: > 8.00

Ask: Look up and report measured pIC50 for this entry: C[C@@H](O)c1cc2cnc(Nc3ccc(CN4CCC(CO)CC4)cn3)nc2c(N2CCCC2)n1
Result: > 8.00

Ask: Specify measured pIC50 for CN1CCN(c2ccc(Nc3ncc4cc(CO)nc(N5CCCCC5=O)c4n3)nc2)CC1 .
Result: ≤ 7.00

Ask: Please indicate pIC50 recorded for C[C@@H](O)c1cc2cnc(Nc3ccc(CN4CCN(CCO)CC4)cn3)nc2c(N2CCCC2)n1
Result: > 8.00

Ask: Report measured pIC50; entry is C[C@@H](O)c1cc2cnc(Nc3ccc(N4CCN(C)CC4=O)cn3)nc2c(N2CCCCC2)n1
Result: > 8.00

Ask: # return recorded pIC50 for entry CN(C)C(=O)c1cc2cnc(Nc3ccc(N4CCNCC4)cn3)nc2c(N2CCCCC2)n1
Result: 7.00 to 8.00

Ask: Please give measured pIC50 of the following entry: C[C@@H](O)c1cc2cnc(Nc3ccc4c(n3)CCN(C(=O)[C@H]3CCN3)C4)nc2c(N2CCCCC2)n1
Result: > 8.00

Ask: Indicate the recorded pIC50 value for this molecule: C[C@H]1CCN(c2nc([C@@H](C)O)cc3cnc(Nc4ccc(CN5CCN(C)CC5)cn4)nc23)C1
Result: > 8.00

Ask: Output pIC50 of C[C@@H](O)c1cc2cnc(Nc3ccc4c(n3)CCN(C(=O)Cc3ccncc3)C4)nc2c(N2CCCCC2)n1
Result: 7.00 to 8.00

Ask: Fill in reported pIC50 for this entry: C[C@@H]1CCN(c2nc([C@@H](C)O)cc3cnc(Nc4ccc(CN5CCN(CCO)CC5)cn4)nc23)C1
Result: > 8.00

Ask: # return recorded pIC50 for entry C[C@@H](O)c1cc2cnc(Nc3ccc4c(n3)CCN(C(=O)Cn3ccnc3)C4)nc2c(N2CCCCC2)n1
Result: > 8.00

----------
Assay Target: CDK4/cyclin D3 (Homo sapiens)
Experiment Notes: Human CDK4/cyclin D3 inhibitory activity (QS S Assist CDK4/Cyclin D3_FP Kit, IMAP fluorescent polarization)
Experimental Context: read-out: CDK4 Activity symbol
Readout: IC50

Consider the worked cases shown below.
| Compound | Data Value |
| --- | --- |
| O=C(O)c1cc2cnc(Nc3ccc(N4CCNCC4)cn3)nc2c(N2CCCCC2)n1 [Compound 23] | ≥ 0.1 µM |
| C[C@@H](O)c1cc2cnc(Nc3ccc(CN4CCN(C)CC4)cn3)nc2c(N2CCCCC2)n1 [Compound 56] | < 0.01 µM |
| C[C@@H](O)c1cc2cnc(Nc3ccc(N4CCCNCC4=O)cn3)nc2c(N2CCCCC2)n1 [Compound 127] | < 0.01 µM |
| OCCN1CCN(Cc2ccc(Nc3ncc4cc(CO)nc(N5CCCCC5)c4n3)nc2)CC1 [Compound 96] | < 0.01 µM |
| C[C@@H](O)c1cc2cnc(Nc3ccc(OC4CCNCC4)cn3)nc2c(N2CCCCC2)n1 [Compound 164] | < 0.01 µM |
| c1cc(Nc2ncc3cc(C4CCOC4)nc(N4CCCCC4)c3n2)ncc1CN1CCNCC1 (stereo not shown) [Compound 206] | < 0.01 µM |
| C[C@@H](O)c1cc2cnc(Nc3ccc(CN4CCN(CCO)CC4)cn3)nc2c(N2C3CCC2CC3)n1 [Compound 103] | < 0.01 µM |
| C[C@@H](O)c1cc2cnc(Nc3ccc(CN4CCN(CCO)CC4)cn3)nc2c(-c2ccccc2)n1 [Compound 190] | 0.01 to 0.1 µM |
| C[C@@H](O)c1cc2cnc(Nc3ccc(C(=O)N4CCC(N(C)C)CC4)cn3)nc2c(N2CCCCC2)n1 [Compound 315] | < 0.01 µM |
| C[C@@H](O)c1cc2cnc(Nc3ccc(CN4CCN(C)CC4)cn3)nc2c(N2CCCC2(C)C)n1 [Compound 173] | < 0.01 µM |

Ask: Give the reported IC50 for this compound. C[C@H]1CCN(c2nc([C@@H](C)O)cc3cnc(Nc4ccc(CN5CCN(CCO)CC5)cn4)nc23)C1 [Compound 99]
Result: < 0.01 µM

Ask: Annotate the compound C[C@@H](O)c1cc2cnc(Nc3ccc(CN4CCN(CCO)CC4)cn3)nc2c(N2CCC(F)(F)CC2)n1 [Compound 79] with its measured IC50.
Result: < 0.01 µM

----------
Assay Target: CDK4/cyclin D3 (Homo sapiens)
Experiment Notes: Human CDK4/cyclin D3 inhibitory activity (QS S Assist CDK4/Cyclin D3_FP Kit, IMAP fluorescent polarization)
Experimental Context: read-out: CDK4 Activity symbol
Below is a list of entries, each paired with its recorded IC50 value.

Some compounds with recorded IC50:
| Compound | IC50 |
| --- | --- |
| C[C@@H](O)c1cc2cnc(Nc3ccc(CN4CCC(O)CC4)cn3)nc2c(N2CCOCC2)n1 | 10 to 100 nM |
| C[C@@H](O)c1cc2cnc(Nc3ccc4c(n3)CCN(C3CCOCC3)C4)nc2c(N2CCCCC2)n1 | < 10 nM |
| C[C@H]1CCN(c2nc([C@@H](C)O)cc3cnc(Nc4ccc(N5CCNCC5=O)cn4)nc23)C1 | < 10 nM |
| CC(O)c1cc2cnc(Nc3ccc(N4CCNCC4)cn3)nc2c(N2CCCCC2)n1 (stereo not drawn) | < 10 nM |
| C[C@@H](O)c1cc2cnc(Nc3ccc4c(n3)CCN(C(=O)Cc3cccnc3)C4)nc2c(N2CCCCC2)n1 | 10 to 100 nM |

Ask: // Input: C[C@@H](O)c1cc2cnc(Nc3ccc(CN4CCN(CCO)CC4)cn3)nc2c(N2CC[C@@H](F)C2)n1 . Output its IC50 only.
Result: < 10 nM

Ask: Give me measured IC50, please, for this compound: CCC(O)c1cc2cnc(Nc3ccc(N4CCNCC4)cn3)nc2c(N2CCOCC2)n1 (stereo not drawn)
Result: 10 to 100 nM

Ask: Specify IC50 for C[C@@H](O)c1cc2cnc(Nc3ccc(N4CCN(C)CCC4=O)cn3)nc2c(N2CCCCC2)n1 and stop.
Result: < 10 nM

Ask: Please give the documented IC50 of C[C@@H](O)c1cc2cnc(Nc3ccc4c(n3)CCN(C(=O)C3CN(C)C3)C4)nc2c(N2C3CCC2CC3)n1
Result: < 10 nM

Ask: Return IC50 for the following compound: C[C@@H](O)c1cc2cnc(Nc3ccc4c(n3)CCN(C(=O)[C@H]3CCCN3C)C4)nc2c(N2C3CCC2CC3)n1
Result: < 10 nM

----------
Assay Target: CDK4/cyclin D3 (Homo sapiens)
Experiment Notes: Human CDK4/cyclin D3 inhibitory activity (QS S Assist CDK4/Cyclin D3_FP Kit, IMAP fluorescent polarization)
Experimental Context: read-out: CDK4 Activity symbol
Readout: IC50

Worked cases, IC50 given:
| Smiles Data | Data Value |
| --- | --- |
| C[C@@H](O)c1cc2cnc(Nc3ccc(CN4CCN(C)CC4)cn3)nc2c(N2CCC[C@H](F)C2)n1 | < 10 nM |
| C[C@@H](O)c1cc2cnc(Nc3ccc(OC4CCNCC4)cn3)nc2c(N2CCC[C@H](F)C2)n1 | < 10 nM |
| C[C@@H](O)c1cc2cnc(Nc3ccc(C(=O)N4CCN(C)CC4)cn3)nc2c(N2CCCC2)n1 | < 10 nM |
| C[C@@H](O)c1cc2cnc(Nc3ccc4c(n3)CCNC4)nc2c(N2CCCCC2)n1 | < 10 nM |
| C[C@@H](O)Cc1cc2cnc(Nc3ccc(N4CCNCC4=O)cn3)nc2c(N2CCCCC2)n1 | 10 to 100 nM |

Ask: Please report the measured IC50 for C[C@@H](O)c1cc2cnc(Nc3ccc(N4CCNCC4=O)cn3)nc2c(N2CCC(C#N)CC2)n1
Result: < 10 nM

Ask: Query IC50 for C[C@@H](O)c1cc2cnc(Nc3ccc(CN4CCN(CCO)C(=O)C4)cn3)nc2c(N2CCCCC2)n1
Result: 10 to 100 nM

Data origin: patent US11084814B2
